Test system: Staphylococcus aureus
ASSAY_DETAILS: Antibacterial activity against methicillin-susceptible Staphylococcus aureus ATCC 29213 by broth microdilution method in presence of 5% pulmonary surfactant
Format: functional
TEST_PARAMETERS: ATCC 29213, Pulmonary surfactant
VALUE_TYPE: MIC (µg/mL)
Number in µg/mL, nothing else.

STRUCTURE_STRING: CCCCCCCCCC(=O)N[C@@H](CCc1ccc(OC)cc1)C(=O)N[C@@H](CC(N)=O)C(=O)N[C@@H](CC(=O)O)C(=O)N[C@@H]1C(=O)NCC(=O)N[C@@H](CCCN)C(=O)N[C@@H](CC(=O)O)C(=O)N[C@H](C)C(=O)N[C@@H](CC(=O)O)C(=O)NCC(=O)N[C@H](CO)C(=O)N[C@@H]([C@@H](C)CC(=O)O)C(=O)N[C@@H](CC(=O)c2ccccc2N)C(=O)O[C@@H]1C
MIC (µg/mL): 32

STRUCTURE_STRING: CCCCCCCCCC(=O)N[C@@H](Cc1cccc(OC)c1)C(=O)N[C@@H](CC(N)=O)C(=O)N[C@@H](CC(=O)O)C(=O)N[C@@H]1C(=O)NCC(=O)N[C@@H](CCCN)C(=O)N[C@@H](CC(=O)O)C(=O)N[C@H](C)C(=O)N[C@@H](CC(=O)O)C(=O)NCC(=O)N[C@H](CO)C(=O)N[C@@H]([C@@H](C)CC(=O)O)C(=O)N[C@@H](CC(=O)c2ccccc2N)C(=O)O[C@@H]1C
MIC (µg/mL): 4

STRUCTURE_STRING: CCCCCCCCCC(=O)N[C@@H](Cc1ccc(OC)c(OC)c1)C(=O)N[C@@H](CC(N)=O)C(=O)N[C@@H](CC(=O)O)C(=O)N[C@@H]1C(=O)NCC(=O)N[C@@H](CCCN)C(=O)N[C@@H](CC(=O)O)C(=O)N[C@H](C)C(=O)N[C@@H](CC(=O)O)C(=O)NCC(=O)N[C@H](CO)C(=O)N[C@@H]([C@@H](C)CC(=O)O)C(=O)N[C@@H](CC(=O)c2ccccc2N)C(=O)O[C@@H]1C
MIC (µg/mL): 16

STRUCTURE_STRING: CCCCCCCCCC(=O)N[C@@H](Cc1ccc(F)cc1)C(=O)N[C@@H](CC(N)=O)C(=O)N[C@@H](CC(=O)O)C(=O)N[C@@H]1C(=O)NCC(=O)N[C@@H](CCCN)C(=O)N[C@@H](CC(=O)O)C(=O)N[C@H](C)C(=O)N[C@@H](CC(=O)O)C(=O)NCC(=O)N[C@H](CO)C(=O)N[C@@H]([C@@H](C)CC(=O)O)C(=O)N[C@@H](CC(=O)c2ccccc2N)C(=O)O[C@@H]1C
MIC (µg/mL): 16

Now let's try a different one.
Considering `CCCCCCCCCC(=O)N[C@@H](Cc1ccccc1)C(=O)N[C@@H](CC(N)=O)C(=O)N[C@@H](CC(=O)O)C(=O)N[C@@H]1C(=O)NCC(=O)N[C@@H](CCCN)C(=O)N[C@@H](CC(=O)O)C(=O)N[C@H](C)C(=O)N[C@@H](CC(=O)O)C(=O)NCC(=O)N[C@H](CO)C(=O)N[C@@H]([C@@H](C)CC(=O)O)C(=O)N[C@@H](CC(=O)c2ccccc2N)C(=O)O[C@@H]1C` , its MIC with Staphylococcus aureus was recorded as 8

The origin of these recorded values is ChEMBL document CHEMBL2086297.
